Source of measurements: patent US8951507B2

# System: PGE2 release of human skin cells (keratinocytes)
# Experiment: Anti-Prostaglandin E2 (PGE2) assay, A23187-induced PGE2 release, ELISA
# Type: cell-based
# Stated conditions: primary human epidermal keratinocytes, 2 μM A23187 calcium ionophore, at least two independent experiments; read-out: IC50 (50% of PGE2 release is inhibited)
Observable: IC50 (µM)

Molecule	IC50 / µM
CCCCCCC[C@H](O)CC(=O)CCc1ccc(O)c(OC)c1 [[8]-Gingerol]	1.42

A: CCCCCCCCCC(=O)CCc1ccc(O)c(OC)c1 [[8]-Paradol]
B: CCCCC[C@H](O)CC(=O)CCc1ccc(O)c(OC)c1 [[6]-Gingerol]
[Q] Of A and B , which one carries the higher reported IC50? Kindly give the label for the entry you pick.
[A] B
